Test: Maximum concentration of […] drug in plasma recorded in the period of 0-24 hr after administering orally a dose of 3 mg/kg to a fasting rat
Type: ADME, organism-based
Design: dose 3 mg/kg, route oral
Details: po
parameter: Cmax (ng/mL)

{"compound": "CC(C)C(NC(=O)Cn1c(-c2ccccc2)ncc(N)c1=O)C(=O)c1nnc(C(C)(C)C)o1 (stereo unspecified)", "val": 257}

* * *

Assay: Time of maximum concentration of the drug when administered orally a dose of 10 mg/kg to a fasting rat
Format: ADME, organism-based
Parameters: dose 10 mg/kg, route oral
Conditions: in vivo, po
parameter: Tmax (min)

{"compound": "CC(C)C(NC(=O)Cn1c(-c2ccccc2)ncc(N)c1=O)C(=O)c1nnc(C(C)(C)C)o1 (stereo unspecified)", "parameter": "Tmax", "units_label": "min", "val": 18.6}

* * *

Experiment: Bioavailability was evaluated when a dose of 3 mg/kg was administered orally
Assay type: ADME, organism-based
Details: rat, in vivo, po
parameter: bioavailability (%)

{"molecule": "CC(C)C(NC(=O)Cn1c(-c2ccccc2)ncc(N)c1=O)C(=O)c1nnc(C(C)(C)C)o1 (stereo unspecified)", "parameter": "bioavailability", "val": 39.4}

* * *

Assay: Pharmacokinetic parameter AUC was evaluated when a dose of 3 mg/kg is administered orally to a fasting rat
Format: ADME, organism-based
Design: dose 3 mg/kg, route oral
Settings: in vivo, po

{"compound": "CC(C)C(NC(=O)Cn1c(-c2ccccc2)ncc(N)c1=O)C(=O)c1nnc(C(C)(C)C)o1 (stereo unspecified)", "units_label": "ng·h/mL", "AUC": 976}

* * *

Assay: Pharmacokinetic parameter AUC was evaluated when a dose of 30 mg/kg is administered orally
Type: ADME, organism-based
Parameters: dose 30 mg/kg, route oral
Settings: rat, in vivo, po

{"molecule": "CC(C)C(NC(=O)Cn1c(-c2ccccc2)ncc(N)c1=O)C(=O)c1nnc(C(C)(C)C)o1 (stereo unspecified)", "AUC": "3050 ng·h/mL"}

* * *

Assay: Time of maximum concentration of the drug when administered orally a dose of 1 mg/kg to a fasting rat
Format: ADME, organism-based
Parameters: dose 1 mg/kg, route oral
Conditions: in vivo, po

{"molecule": "CC(C)C(NC(=O)Cn1c(-c2ccccc2)ncc(N)c1=O)C(=O)c1nnc(C(C)(C)C)o1 (stereo unspecified)", "Tmax, min": 18.6}

* * *

Test: Pharmacokinetic parameter AUC was evaluated when a dose of 10 mg/kg is administered orally to a fasting rat
Type: ADME, organism-based
Parameters: dose 10 mg/kg, route oral
Details: in vivo, po
parameter: AUC (ng·h/mL)

{"molecule": "CC(C)C(NC(=O)Cn1c(-c2ccccc2)ncc(N)c1=O)C(=O)c1nnc(C(C)(C)C)o1 (stereo unspecified)", "parameter": "AUC", "units_label": "ng·h/mL", "val": 2130}

* * *

Assay: Solubility was determined at a pH of 4.0 using 1/14 M phosphate citrate buffer
Assay type: physicochemical
Settings: pH 4

{"compound_structure_string": "CC(C)[C@H](NC(=O)Cn1c(-c2ccccc2)ncc(N)c1=O)C(=O)c1nnc(C(C)(C)c2ccccc2)o1", "solubility, µg/mL": 26}

* * *

Experiment: Half life after administering orally a dose of 3 mg/kg to a fasting rat
Type: ADME, organism-based
Parameters: dose 3 mg/kg, route oral
Conditions: in vivo, po
parameter: half-life (h)

{"compound": "CC(C)C(NC(=O)Cn1c(-c2ccccc2)ncc(N)c1=O)C(=O)c1nnc(C(C)(C)C)o1 (stereo unspecified)", "parameter": "half-life", "val": 4.5}

* * *

Assay: Pharmacokinetic parameter AUC was evaluated intravenous administration of 3 mg/kg
Format: ADME, organism-based
Set-up: dose 3 mg/kg, route intravenous
Conditions: rat, in vivo
parameter: AUC (ng·h/mL)

{"compound": "CC(C)C(NC(=O)Cn1c(-c2ccccc2)ncc(N)c1=O)C(=O)c1nnc(C(C)(C)C)o1 (stereo unspecified)", "val": 1930}

* * *

The entries below come with measured Ki values attached.
Target: Neutrophil elastase (Homo sapiens)
Sequence (P08246 whole entry): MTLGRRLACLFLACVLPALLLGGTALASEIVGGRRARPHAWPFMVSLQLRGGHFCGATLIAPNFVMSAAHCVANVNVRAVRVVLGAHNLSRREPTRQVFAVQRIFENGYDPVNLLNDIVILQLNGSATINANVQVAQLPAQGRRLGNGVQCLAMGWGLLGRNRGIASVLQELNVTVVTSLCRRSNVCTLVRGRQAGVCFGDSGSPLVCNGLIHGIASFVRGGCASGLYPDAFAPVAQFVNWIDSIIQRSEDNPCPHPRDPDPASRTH
Assay: Binding constant derived from inhibition of elastase catalyzed hydrolysis of synthetic substrate
parameter: Ki (nM)

{"compound": "CC(C)[C@H](NC(=O)[C@@H]1Cc2ccccc2CN1C(=O)[C@@H](NC(=O)c1cccnc1)C(C)C)C(=O)c1nnc(C(C)(C)C)o1", "system_tested": "Neutrophil elastase (Homo sapiens)", "parameter": "Ki", "val": 1.66}
{"compound": "CC(C)OC(=O)N1c2ccccc2C[C@H]1C(=O)N[C@H](C(=O)c1nnc(C(C)(C)C)o1)C(C)C", "system_tested": "Neutrophil elastase (Homo sapiens)", "parameter": "Ki", "val": 114}
{"compound": "COc1ccc(-c2nnc(C(=O)[C@@H](NC(=O)Cn3c(-c4ccc(F)cc4)ncc(N)c3=O)C(C)C)o2)cc1", "system_tested": "Neutrophil elastase (Homo sapiens)", "parameter": "Ki", "val": 21.2}
{"compound": "CC(C)[C@H](NC(=O)C1Cc2ccccc2CN1C(=O)c1c[nH]cn1)C(=O)c1nnc(C(C)(C)C)o1 (some centres undefined)", "system_tested": "Neutrophil elastase (Homo sapiens)", "parameter": "Ki", "val": 309}

* * *

Assay: Time of maximum concentration of the drug when administered orally a dose of 30 mg/kg
Format: ADME, organism-based
Set-up: dose 30 mg/kg, route oral
Conditions: rat, in vivo, po
parameter: Tmax (min)

{"compound": "CC(C)C(NC(=O)Cn1c(-c2ccccc2)ncc(N)c1=O)C(=O)c1nnc(C(C)(C)C)o1 (stereo unspecified)", "parameter": "Tmax", "val": 26.4}

* * *

Test: Pharmacokinetic parameter AUC was evaluated when a dose of 3 mg/kg is administered orally
Type: ADME, organism-based
Design: dose 3 mg/kg, route oral
Conditions: rat, in vivo, po

{"molecule": "CC(C)C(NC(=O)Cn1c(-c2ccccc2)ncc(N)c1=O)C(=O)c1nnc(C(C)(C)C)o1 (stereo unspecified)", "units_label": "ng·h/mL", "AUC": 760}

* * *

Assay: Pharmacokinetic parameter AUC was evaluated when a dose of 1 mg/kg is administered orally to a fasting rat
Assay type: ADME, organism-based
Parameters: dose 1 mg/kg, route oral
Conditions: in vivo, po

{"compound": "CC(C)C(NC(=O)Cn1c(-c2ccccc2)ncc(N)c1=O)C(=O)c1nnc(C(C)(C)C)o1 (stereo unspecified)", "AUC [µg·h/mL]": 0.23}

* * *

Assay: Half life after administering orally a dose of 30 mg/kg
Format: ADME, organism-based
Design: dose 30 mg/kg, route oral
Settings: rat, in vivo, po

{"molecule": "CC(C)C(NC(=O)Cn1c(-c2ccccc2)ncc(N)c1=O)C(=O)c1nnc(C(C)(C)C)o1 (stereo unspecified)", "units_label": "h", "half-life": 8.7}

* * *

Assay: Half life after administering intravenously a dose of 3 mg/kg
Conditions: rat, in vivo, iv

{"compound": "CC(C)C(NC(=O)Cn1c(-c2ccccc2)ncc(N)c1=O)C(=O)c1nnc(C(C)(C)C)o1 (stereo unspecified)", "half-life / h": 3}

* * *

Test: Time of maximum concentration of the drug when administered orally a dose of 3 mg/kg to a fasting rat
Type: ADME, organism-based
Design: dose 3 mg/kg, route oral
Details: in vivo, po
parameter: Tmax

{"compound": "CC(C)C(NC(=O)Cn1c(-c2ccccc2)ncc(N)c1=O)C(=O)c1nnc(C(C)(C)C)o1 (stereo unspecified)", "parameter": "Tmax", "val": "37.8 min"}

* * *

Assay: Half life after administering orally a dose of 3 mg/kg
Type: ADME, organism-based
Parameters: dose 3 mg/kg, route oral
Conditions: rat, in vivo, po
parameter: half-life (h)

{"compound": "CC(C)C(NC(=O)Cn1c(-c2ccccc2)ncc(N)c1=O)C(=O)c1nnc(C(C)(C)C)o1 (stereo unspecified)", "val": 5}

src = ChEMBL document CHEMBL1134847
